# Species on record: Rattus norvegicus
# TEST_NAME: Open TG-GATES - Regimen: Daily Repeat
# Type: toxicity, organism-based, Sprague-Dawley
# Parameters: regimen Daily Repeat, gender Male, age 6 weeks
# EXPERIMENTAL_PARAMETERS: in vivo, po, 0 mg/kg, […], tissue Plasma, route gavage, dose level Control, time 14 day
Values of AST strictly less than 60 IU/L map to TRUE, and values of at least 60 IU/L map to FALSE.

MOLECULE | ANSWER_LABEL
NC(=O)N/N=C/c1ccc([N+](=O)[O-])o1 | FALSE
NC(=O)N1c2ccccc2C=Cc2ccccc21 [CARBAMAZEPINE] | FALSE
Cn1c(=O)c2[nH]cnc2n(C)c1=O.O | FALSE
CC(=O)Oc1ccccc1C(=O)O | FALSE
CSc1ccc2c(c1)N(CCC1CCCCN1C)c1ccccc1S2 (stereo not given) | TRUE
CCCC(CCC)C(=O)O | FALSE
CN(C)CCC=C1c2ccccc2CCc2ccccc21 | FALSE
CO[C@H]1/C=C/O[C@@]2(C)Oc3c(C)c(O)c4c(O)c(c(/C=N/N5CCN(C)CC5)c(O)c4c3C2=O)NC(=O)/C(C)=C\C=C\[C@H](C)[C@H](O)[C@@H](C)[C@@H](O)[C@@H](C)[C@H](OC(C)=O)[C@@H]1C | TRUE
Clc1ccccc1CN1CCc2sccc2C1 | FALSE
COc1ccc(Cc2nccc3cc(OC)c(OC)cc23)cc1OC | FALSE
CCc1cc(C(N)=S)ccn1 [ETHIONAMIDE] | FALSE
O=C(O)c1cc(/N=N/c2ccc(S(=O)(=O)Nc3ccccn3)cc2)ccc1O | FALSE

###

// reported GLC per item
# Species: Rattus norvegicus
# TEST_NAME: Open TG-GATES - Regimen: Single
# Format: toxicity, organism-based, Sprague-Dawley
# Parameters: regimen Single, gender Male, age 6 weeks
# EXPERIMENTAL_PARAMETERS: in vivo, po, 100 mg/kg, 24 h, tissue Plasma, route gavage, dose level Low

COMPOUND | MEASUREMENT_UNITS | GLC
C[C@H](CS)C(=O)N1CCC[C@H]1C(=O)O | mg/dL | 189.4
Clc1ccccc1CN1CCc2sccc2C1 | mg/dL | 188.6
O=C(O)c1cc(/N=N/c2ccc(S(=O)(=O)Nc3ccccn3)cc2)ccc1O | mg/dL | 184
O=C(O)c1cn(C2CC2)c2cc(N3CCNCC3)c(F)cc2c1=O | mg/dL | 191.6
CCc1cc(C(N)=S)ccn1 [ETHIONAMIDE] | mg/dL | 193.2

###

# Species: Rattus norvegicus
# TEST_NAME: Open TG-GATES - Regimen: Daily Repeat
# Format: toxicity, organism-based, Sprague-Dawley
# Set-up: regimen Daily Repeat, gender Male, age 6 weeks
# EXPERIMENTAL_PARAMETERS: in vivo, po, 0 mg/kg, […], tissue Liver, route gavage, dose level Control, time 14 day
LIVER listing for selected compounds.

COMPOUND | LIVER, g
CCc1cc(C(N)=S)ccn1 [ETHIONAMIDE] | 14.6
COc1ccc2c(c1)c(CC(=O)O)c(C)n2C(=O)c1ccc(Cl)cc1 | 16
O=C(O)c1cc(/N=N/c2ccc(S(=O)(=O)Nc3ccccn3)cc2)ccc1O | 13.3
Clc1ccccc1CN1CCc2sccc2C1 | 13.2
COc1ccc(Cc2nccc3cc(OC)c(OC)cc23)cc1OC | 14.2

###

# Organism: Rattus norvegicus
# TEST_NAME: Open TG-GATES - Regimen: Single
# Type: toxicity, organism-based, Sprague-Dawley
# Design: regimen Single, gender Male, age 6 weeks
# EXPERIMENTAL_PARAMETERS: in vivo, po, 300 mg/kg, 6 h, tissue Plasma, route gavage, dose level Middle
Reported values of AST for individual entries
MEASUREMENT_KIND: AST

COMPOUND | MEASUREMENT_KIND | RESULT
O=C(O)c1cc(/N=N/c2ccc(S(=O)(=O)Nc3ccccn3)cc2)ccc1O | AST | 68.8 IU/L
CCc1cc(C(N)=S)ccn1 [ETHIONAMIDE] | AST | 73.2 IU/L
Clc1ccccc1CN1CCc2sccc2C1 | AST | 74.6 IU/L
C[C@H](CS)C(=O)N1CCC[C@H]1C(=O)O | AST | 55 IU/L

###

# Species on record: Rattus norvegicus
# TEST_NAME: Open TG-GATES - Regimen: Single
# Type: toxicity, organism-based, Sprague-Dawley
# Parameters: regimen Single, gender Male, age 6 weeks
# EXPERIMENTAL_PARAMETERS: in vivo, po, 1000 mg/kg, 24 h, tissue Plasma, route gavage, dose level High

COMPOUND | MEASUREMENT_UNITS | gamma-GTP
CCc1cc(C(N)=S)ccn1 [ETHIONAMIDE] | IU/L | 0.4
O=C(O)c1cn(C2CC2)c2cc(N3CCNCC3)c(F)cc2c1=O [CIPROFLOXACIN] | IU/L | 1.2
Clc1ccccc1CN1CCc2sccc2C1 [TICLOPIDINE] | IU/L | 1.2
O=C(O)c1cc(/N=N/c2ccc(S(=O)(=O)Nc3ccccn3)cc2)ccc1O [SULFASALAZINE] | IU/L | 1
C[C@H](CS)C(=O)N1CCC[C@H]1C(=O)O [CAPTOPRIL] | IU/L | 1.2

###

Reported values of CRE for individual entries
# Species on record: Rattus norvegicus
# TEST_NAME: Open TG-GATES - Regimen: Single
# Type: toxicity, organism-based, Sprague-Dawley
# Set-up: regimen Single, gender Male, age 6 weeks
# EXPERIMENTAL_PARAMETERS: in vivo, po, 300 mg/kg, 24 h, tissue Plasma, route gavage, dose level Middle

COMPOUND | CRE, mg/dL
CCc1cc(C(N)=S)ccn1 [ETHIONAMIDE] | 0.6
O=C(O)c1cc(/N=N/c2ccc(S(=O)(=O)Nc3ccccn3)cc2)ccc1O [SULFASALAZINE] | 0.4
Clc1ccccc1CN1CCc2sccc2C1 [TICLOPIDINE] | 0.4
C[C@H](CS)C(=O)N1CCC[C@H]1C(=O)O [CAPTOPRIL] | 0.6
O=C(O)c1cn(C2CC2)c2cc(N3CCNCC3)c(F)cc2c1=O [CIPROFLOXACIN] | 0.5

###

# Organism: Rattus norvegicus
# TEST_NAME: Open TG-GATES - Regimen: Daily Repeat
# Type: toxicity, organism-based, Sprague-Dawley
# Set-up: regimen Daily Repeat, gender Male, age 6 weeks
# EXPERIMENTAL_PARAMETERS: in vivo, po, 0 mg/kg, […], tissue Blood, route gavage, dose level Control, time 7 day
Readings of RBC for the listed molecules
MEASUREMENT_KIND: RBC (x10_4/ul)

MOLECULE | MEASUREMENT_UNITS | READOUT_NUMBER
NC(=O)N1c2ccccc2C=Cc2ccccc21 [CARBAMAZEPINE] | x10_4/ul | 674.4
Clc1ccccc1CN1CCc2sccc2C1 | x10_4/ul | 658
Cn1c(=O)c2[nH]cnc2n(C)c1=O.O | x10_4/ul | 662
CN(C)CCC=C1c2ccccc2CCc2ccccc21 | x10_4/ul | 648.8
CCc1cc(C(N)=S)ccn1 [ETHIONAMIDE] | x10_4/ul | 661.6
O=C(O)c1cn(C2CC2)c2cc(N3CCNCC3)c(F)cc2c1=O | x10_4/ul | 605.2
COc1ccc2c(c1)c(CC(=O)O)c(C)n2C(=O)c1ccc(Cl)cc1 | x10_4/ul | 675
O=C(O)c1cc(/N=N/c2ccc(S(=O)(=O)Nc3ccccn3)cc2)ccc1O | x10_4/ul | 655
COc1ccc(Cc2nccc3cc(OC)c(OC)cc23)cc1OC | x10_4/ul | 654
CC(=O)Oc1ccccc1C(=O)O | x10_4/ul | 648.4
CO[C@H]1/C=C/O[C@@]2(C)Oc3c(C)c(O)c4c(O)c(c(/C=N/N5CCN(C)CC5)c(O)c4c3C2=O)NC(=O)/C(C)=C\C=C\[C@H](C)[C@H](O)[C@@H](C)[C@@H](O)[C@@H](C)[C@H](OC(C)=O)[C@@H]1C | x10_4/ul | 677.2
CSc1ccc2c(c1)N(CCC1CCCCN1C)c1ccccc1S2 (stereo not given) | x10_4/ul | 642.4
CCCC(CCC)C(=O)O | x10_4/ul | 658.4
C[C@H](CS)C(=O)N1CCC[C@H]1C(=O)O | x10_4/ul | 653.4
NC(=O)N/N=C/c1ccc([N+](=O)[O-])o1 | x10_4/ul | 636.4

###

# Species on record: Rattus norvegicus
# TEST_NAME: Open TG-GATES - Regimen: Single
# Assay type: toxicity, organism-based, Sprague-Dawley
# Set-up: regimen Single, gender Male, age 6 weeks
# EXPERIMENTAL_PARAMETERS: in vivo, po, 0 mg/kg, 9 h, tissue Plasma, route gavage, dose level Control
Below, each entry is listed with its recorded TC.
MEASUREMENT_KIND: TC (mg/dL)

COMPOUND | READOUT_NUMBER
NC(=O)N/N=C/c1ccc([N+](=O)[O-])o1 [NITROFURAZONE] | 85.2
O=C(O)c1cn(C2CC2)c2cc(N3CCNCC3)c(F)cc2c1=O [CIPROFLOXACIN] | 71.8
CSc1ccc2c(c1)N(CCC1CCCCN1C)c1ccccc1S2 (stereo unspecified) [THIORIDAZINE] | 87.6
Cn1c(=O)c2[nH]cnc2n(C)c1=O.O [THEOPHYLLINE] | 73.2
C[C@H](CS)C(=O)N1CCC[C@H]1C(=O)O [CAPTOPRIL] | 68.8
Clc1ccccc1CN1CCc2sccc2C1 [TICLOPIDINE] | 74
CC(=O)Oc1ccccc1C(=O)O [ASPIRIN] | 69.2
COc1ccc(Cc2nccc3cc(OC)c(OC)cc23)cc1OC [PAPAVERINE] | 78.4
O=C(O)c1cc(/N=N/c2ccc(S(=O)(=O)Nc3ccccn3)cc2)ccc1O [SULFASALAZINE] | 73.2
CN(C)CCC=C1c2ccccc2CCc2ccccc21 [AMITRIPTYLINE] | 79.4
CCc1cc(C(N)=S)ccn1 [ETHIONAMIDE] | 65.8
